Source listed as ChEMBL document CHEMBL3259717.

Experiment: Selectivity index, ratio of LD50 for African green monkey Vero cells to MIC for replicating form of Mycobacterium tuberculosis infected in African green monkey Vero cells
Format: toxicity, cell-based
Details: read-out: Selectivity Index
READOUT_NAME: selectivity ratio

MOLECULE: CCCc1cc(=O)oc2c3c(c4c(c12)OC(C)(C)C=C4)O[C@H](C)[C@@H](C)[C@@H]3O [CALANOLIDE A]
READOUT_NAME: selectivity ratio
EXPERIMENTAL_VALUE: 2.4

---

System: Mycobacterium tuberculosis
Assay: Antibacterial activity against non-replicating form of Mycobacterium tuberculosis MC2 6220 assessed as growth inhibition after 3 days by high-throughput screening assay
Assay type: functional
Conditions: MC2 6220, 72 h
Entries and their MIC90 values follow.

COMPOUND: CCCc1cc(=O)oc2cc(OC(=O)c3ccccc3)c3c(c12)OC(C)(C)C=C3
MIC90: > 20 µg/mL

COMPOUND: CCCc1cc(=O)oc2c3c(c4cc([N+](=O)[O-])oc4c12)OC(C)CC3=O (stereo not given)
MIC90: 6 µg/mL

COMPOUND: CCCc1cc(=O)oc2cc(N3CCN(C(=O)Nc4ccc(F)c(Cl)c4)CC3)c3c(c12)OC(C)(C)C=C3
MIC90: > 26 µg/mL

COMPOUND: CCCc1cc(=O)oc2cc(N3CCNCC3)c3c(c12)OC(C)(C)C=C3.O=C(O)C(F)(F)F
MIC90: > 23 µg/mL

COMPOUND: CCCc1cc(=O)oc2cc(C#Cc3ccc(C)cc3)c3c(c12)OC(C)(C)C=C3
MIC90: > 19 µg/mL

---

Test system: Mycobacterium tuberculosis
Experiment: Antibacterial activity against non-replicating form of Mycobacterium tuberculosis MC2 6220 assessed as growth inhibition after 3 days by high-throughput screening assay
Format: functional
Settings: MC2 6220, 72 h
Entries and their MIC90 values follow.
READOUT_NAME: MIC90

COMPOUND: CCCc1cc(=O)oc2cc(OCC3CC3)c3c(c12)OC(C)(C)C=C3
READOUT_NAME: MIC90
EXPERIMENTAL_VALUE: > 17 µg/mL
//
COMPOUND: CCCc1cc(=O)oc2c(C(=O)O)c(O)c3c(c12)OC(C)(C)C=C3
READOUT_NAME: MIC90
EXPERIMENTAL_VALUE: > 17 µg/mL
//
COMPOUND: O=C(OCCOc1cc2c(c3oc(=O)c4c(c13)CCCC4)[C@H](O)[C@@H]([N+](=O)[O-])O2)c1cnccn1 (racemic)
READOUT_NAME: MIC90
EXPERIMENTAL_VALUE: < 1 µg/mL
//
COMPOUND: CCCc1cc(=O)oc2cc(N3CCN(C(=O)C(C)CC)CC3)c3c(c12)OC(C)(C)C=C3 (stereo not given)
READOUT_NAME: MIC90
EXPERIMENTAL_VALUE: > 22 µg/mL
//
COMPOUND: CCCc1cc(=O)oc2c(C(=O)CC)c(N3CCN(c4ccc(OC)cc4)CC3)c3c(c12)OC(C)(C)C=C3
READOUT_NAME: MIC90
EXPERIMENTAL_VALUE: > 26 µg/mL

---

Assay: Selectivity index, ratio of LD50 for human HepG2 cells to MIC90 for replicating form of Mycobacterium tuberculosis H37Rv
Assay type: toxicity, cell-based
Conditions: read-out: Selectivity Index
Entries and their selectivity ratio values follow.
READOUT_NAME: selectivity ratio

QUERY_SMILES: CCCc1cc(=O)oc2c1c(OCc1ccc(F)cc1)cc1oc([N+](=O)[O-])cc12
READOUT_NAME: selectivity ratio
READING_QUALIFIER: >
EXPERIMENTAL_VALUE: 160

QUERY_SMILES: CN1CCN(Cc2cc(=O)oc3c2c2c(c4oc([N+](=O)[O-])cc43)C=CC(C)(C)O2)CC1
READOUT_NAME: selectivity ratio
READING_QUALIFIER: =
EXPERIMENTAL_VALUE: 31

QUERY_SMILES: CCCc1cc(=O)oc2c3c(cc(OCCN4CCOCC4)c12)O[C@@H]([N+](=O)[O-])[C@@H]3O
READOUT_NAME: selectivity ratio
READING_QUALIFIER: =
EXPERIMENTAL_VALUE: 10

QUERY_SMILES: CCCc1cc(=O)oc2c1c(OCCN1CCOCC1)cc1oc([N+](=O)[O-])cc12
READOUT_NAME: selectivity ratio
READING_QUALIFIER: =
EXPERIMENTAL_VALUE: 125

QUERY_SMILES: CCc1c(F)c(=O)oc2c1c1c(c3oc([N+](=O)[O-])cc32)C=CC(C)(C)O1
READOUT_NAME: selectivity ratio
READING_QUALIFIER: >
EXPERIMENTAL_VALUE: 40

QUERY_SMILES: CCCc1cc(=O)oc2c3c(cc(OCCN4CCOCC4)c12)O[C@H]([N+](=O)[O-])[C@H]3O
READOUT_NAME: selectivity ratio
READING_QUALIFIER: =
EXPERIMENTAL_VALUE: 20

QUERY_SMILES: CCCc1cc(=O)oc2c1c1c(c3oc([N+](=O)[O-])cc32)C=CC(C)(C)O1
READOUT_NAME: selectivity ratio
READING_QUALIFIER: =
EXPERIMENTAL_VALUE: 8

QUERY_SMILES: CCCc1cc(=O)oc2c1c1c(c3oc([N+](=O)[O-])cc32)CCC(C)(C)O1
READOUT_NAME: selectivity ratio
READING_QUALIFIER: >
EXPERIMENTAL_VALUE: 80

QUERY_SMILES: Cc1cc(=O)oc2c1c1c(c3oc([N+](=O)[O-])cc32)C=CC(C)(C)O1
READOUT_NAME: selectivity ratio
READING_QUALIFIER: =
EXPERIMENTAL_VALUE: 16
